Entry source: ChEMBL document CHEMBL1153052

- tested.system: Heat shock protein HSP90 (Homo sapiens) (UniProt P07900+P08238)
- assay.overview: Inhibition of Hsp90 in human MCF7 cells assessed as Her2 degradation at 20 to 40 uM after 24 hrs by Western blotting
- Format: cell-based
Activity calls are given as the source filed them. The rule behind the calls is not given here.
experimental.readout: Activity

* O=C(CSc1nnc(-c2cccnc2)n1-c1ccccc1)NCc1ccccc1 | Active
* COc1ccc(-c2cc(-c3nnc(S)n3-c3cccc4ccccc34)[nH]n2)cc1 | Active
* O=C1NC(=O)N(c2ccccc2F)C(=O)/C1=C\c1cn(Cc2ccccc2)c2ccccc12 | Active
* Cc1cccc(N2C(=O)NC(=O)/C(=C/c3ccccc3OCC(=O)O)C2=O)c1 | Active

Consider now this further compound.
I have this compound here, O=C(CSc1nnc(-c2ccc3c(c2)OCO3)n1-c1ccccc1)c1ccccc1 , and I need its recorded Activity.
Active
